- Method: gradient 5% acetonitrile 3 min, to 50% in 2 min, to 85% in 15 min, held 3 min, 100 µL/min
- Experimental Context: column: Zorbax Extend-C18 2.1 x 50 mm; eluents: water / acetonitrile, 0.1% formic acid
Known RP-LC retention time of a selection of compounds

Here are 3 compounds together with their reported answers.
CCS(=O)(=O)c1nc2ccc(NS(=O)(=O)c3ccc(C(C)(C)C)cc3)cc2s1: 1040 s
Cc1nn(-c2ccccc2)c(C)c1S(=O)(=O)N1CCC(C(=O)Nc2cccc(Cl)c2)CC1: 1040 s
CCOc1ccccc1NC(=O)C1CC(=O)N(c2n[nH]c3ccccc23)C1 (stereo not given): 767 s

Query :: Would you kindly share the measured RP-LC retention time for CCc1nnc2nc(N3CCN(C(=O)C(C)Oc4ccccc4)CC3)cc(C)n12 (stereo not given) ?
Result :: 622 s

Query :: Moving on to "O=C(NCCc1csc(-c2ccccc2)n1)C1CCN(C(=O)c2ccco2)CC1"
Result :: 749 s

Query :: Moving on to "Cc1ccc(Cl)c(NC(=O)c2[nH]c3cc(C)sc3c2CN(C)C)c1"
Result :: 688 s

Query :: Moving on to "Cc1cc(C)c(CNC(=O)C2CCN(c3cncnc3N3CCOCC3)CC2)c(C)c1"
Result :: 681 s

Query :: Moving on to "O=C(Nc1ccc2c(c1)OCCO2)c1cc2c(s1)CN(C1CCCC1)C2"
Result :: 621 s

Query :: Moving on to "CCn1nc(C)c(CNC(=O)Nc2cccc(C(=O)OC)c2)c1C"
Result :: 663 s

Query :: Moving on to "CC(=O)Nc1ccc(OCC(=O)NCc2ccc(N3CCOCC3)cc2)nc1"
Result :: 604 s

Query :: Moving on to "O=C(Cc1noc2ccccc12)Nc1cccc2nsnc12"
Result :: 814 s

Query :: Moving on to "CCOc1ccc(-n2cc(C(=O)OCC(=O)OC)c3ccccc3c2=O)cc1"
Result :: 1000 s

Query :: Moving on to "Cc1cc(C)c(NC(=O)Cn2nc3cc(-c4ccccc4)nc(C)n3c2=O)c(C)c1"
Result :: 985 s

Query :: Moving on to O=C(c1c(F)cccc1F)N(CC1CCOC1)C1CC1 (stereo not given)
Result :: 769 s

Query :: Moving on to "O=C(N[C@H]1C[C@@H]2C[C@H]1CN2S(=O)(=O)c1ccc2c(c1)CCC2)c1cccs1"
Result :: 943 s

Query :: Moving on to "COc1ccc(OC)c(NC(=O)N2CCOc3ccc(Cl)cc32)c1"
Result :: 1010 s

Query :: Moving on to "Cn1cc(CCNS(=O)(=O)c2ccccc2Br)c2cccnc21"
Result :: 741 s

Query :: Moving on to COc1ccc(-c2nc(CN3C(=O)C(O)(c4cccc(F)c4)c4ccccc43)c(C)o2)cc1 (stereo not given)
Result :: 1040 s

---

- Method: gradient 5% acetonitrile 3 min, to 50% in 2 min, to 85% in 15 min, held 3 min, 100 µL/min
- Experimental Context: column: Zorbax Extend-C18 2.1 x 50 mm; eluents: water / acetonitrile, 0.1% formic acid
Quick rule for you: RP-LC retention time at 800 s or higher means TRUE, lower means FALSE.

Query :: Exam item: decide whether the reported RP-LC retention time for "COC(=O)c1ccc2c(=O)n(-c3cc(OC)cc(OC)c3)c(N3CCN(C(C)C)CC3)nc2c1" is at least 800 s.
Result :: FALSE

Query :: Moving on to "Cn1cccc1CN(C(=O)CC(c1ccccc1)c1ccccc1)C1CC1"
Result :: TRUE

Query :: Moving on to "Cc1cc(C)cc(OCc2nc(CCN(C)C(=O)COc3ccccc3)no2)c1"
Result :: TRUE

Query :: Moving on to Cc1cccc(NC(=O)NC2CCN(c3ccc(F)cc3)C2=O)c1 (configuration not stated)
Result :: TRUE

---

- Method: gradient 5% acetonitrile 3 min, to 50% in 2 min, to 85% in 15 min, held 3 min, 100 µL/min
- Experimental Context: column: Zorbax Extend-C18 2.1 x 50 mm; eluents: water / acetonitrile, 0.1% formic acid
Known RP-LC retention time of a selection of compounds
Field: numeric (s). Do not append units.

CCCn1c(=O)sc2cc(S(=O)(=O)N3CCN(C(=O)c4ccnn4C)CC3)ccc21: 792
Cc1cc(Nc2cc(CN3CCOCC3)c3nc(C)c(Cc4ccc(Cl)cc4F)n3n2)n[nH]1: 712
Cc1ccc(CNC(=O)C2CCN(S(=O)(=O)c3ccc4c(c3)NC(=O)CO4)CC2)cc1: 794
Cc1ccc(-c2ccc3nnc(CCC(=O)NCCCOC(C)C)n3n2)cc1C: 795
O=C(c1ccc(-c2ccsc2)nc1)N1CCCCC1: 792

Query :: Would you kindly share the measured RP-LC retention time for "Nc1cc(C2CCN(C(=O)c3ccc(F)c(Cl)c3)CC2)no1" ?
Result :: 712

Query :: Moving on to "Cc1csc(NC(=O)Cc2cc(-c3cccs3)on2)n1"
Result :: 763

Query :: Moving on to "Cc1ccc(Nc2nc(-c3ccncc3)nc3ccccc23)cc1"
Result :: 797

Query :: Moving on to "CCS(=O)(=O)N1CCC(C(=O)NCCc2csc(-c3cccs3)n2)CC1"
Result :: 738

Query :: Moving on to Cc1ccc(Cn2c(=O)c(N3CCCC(C(=O)NCc4cccs4)C3)nc3ccccc32)cc1 (stereo unspecified)
Result :: 1170

Query :: Moving on to "O=C(Nc1cccc(Cl)c1)c1nnc(CCCC(=O)N2CCN(c3ccccn3)CC2)s1"
Result :: 669

Query :: Moving on to "CCN1CCN(c2ccc(NC(=O)c3ccccc3Cl)cn2)C1=O"
Result :: 672

Query :: Moving on to "CC(C)n1c(=O)sc2cc(S(=O)(=O)N3CCC(C(=O)N4CCc5ccccc5C4)CC3)ccc21"
Result :: 1000

---

- Method: gradient 5% acetonitrile 3 min, to 50% in 2 min, to 85% in 15 min, held 3 min, 100 µL/min
- Experimental Context: column: Zorbax Extend-C18 2.1 x 50 mm; eluents: water / acetonitrile, 0.1% formic acid
Known RP-LC retention time of a selection of molecules
Field: numeric (s). Do not append units.

Here are 4 molecules together with their reported answers.
Cc1c(Cl)cccc1Nc1c(-c2ccc(Cl)cc2)nc2ncccn12: 992
CCCCn1cc(S(=O)(=O)Nc2cccc(CC)c2)c2cccnc21: 1070
Cc1ccc(Nc2nc(-c3ccc(Br)cc3)cs2)nc1: 1080
COc1cc(=O)n2c(c1C(=O)Nc1ccc(Br)c(C)c1)CCCC2: 833

Query :: Would you kindly share the measured RP-LC retention time for O=C(NCc1ccc2c(c1)OCO2)C1CCCN(c2cnc3nccnc3c2)C1 (stereo not drawn) ?
Result :: 666

Query :: Moving on to Cc1noc(C)c1S(=O)(=O)N1CC(CN(C)C)C2(CCOCC2)C1 (stereo not drawn)
Result :: 600

Query :: Moving on to "O=c1[nH]c2ccc(NCc3ccc(-c4ccccc4F)o3)cc2[nH]1"
Result :: 687

Query :: Moving on to O=C(Cn1c(=O)oc2ccccc21)N1CCN(C(=O)C2CC2c2cccs2)CC1 (stereo not drawn)
Result :: 738

Query :: Moving on to "CCn1cc(C(=O)NCc2ccc(F)cc2)c2cccnc21"
Result :: 771

Query :: Moving on to "COC(=O)c1ccc2c(=O)n(-c3cccc(C)c3)c(N3CCCCC3)nc2c1"
Result :: 1240

Query :: Moving on to "COc1ccc(/C=C/c2nn3c(CCc4ccccc4)nnc3s2)cc1"
Result :: 910

Query :: Moving on to O=C1NC(c2ccccc2)(C(F)(F)F)SC2=NCCCN12 (stereo not drawn)
Result :: 584

Query :: Moving on to "Cc1cc(C)cc(C(=O)N2CCC(COc3ccc(C(=O)NC4CC4)cc3)CC2)c1"
Result :: 887

---

- Method: gradient 5% acetonitrile 3 min, to 50% in 2 min, to 85% in 15 min, held 3 min, 100 µL/min
- Experimental Context: column: Zorbax Extend-C18 2.1 x 50 mm; eluents: water / acetonitrile, 0.1% formic acid
Assay Endpoint: RP-LC retention time (s)
Field: numeric (s). Do not append units.

Here are 3 molecules together with their reported answers.
CCc1ccc(N2CC(c3noc(-c4cccc(Cl)c4)n3)CC2=O)cc1 (centres undefined): 1200
CN(c1ccc(F)cc1)S(=O)(=O)N1CCCC(C(=O)NCCc2c[nH]c3ccccc23)C1 (centres undefined): 932
O=C(c1ccc2cc[nH]c2c1)N1CCN(c2cc(-c3cccs3)[nH]n2)CC1: 747

Query :: Would you kindly share the measured RP-LC retention time for COCCCNCc1ccc(-c2ccc(C(C)O)cc2)o1 (centres undefined) ?
Result :: 600

---

- Method: gradient 5% acetonitrile 3 min, to 50% in 2 min, to 85% in 15 min, held 3 min, 100 µL/min
- Experimental Context: column: Zorbax Extend-C18 2.1 x 50 mm; eluents: water / acetonitrile, 0.1% formic acid
Known RP-LC retention time of a selection of compounds
Field: numeric (s). Do not append units.

COc1ccc(OC)c(NC(=O)C(C)Oc2ccc(=O)n(-c3ccc(F)cc3)n2)c1 (stereo unspecified): 816
Cc1cc(C)cc(C(=O)N2CCN(S(=O)(=O)c3cc4c5c(c3)CCC(=O)N5CCC4)CC2)c1: 815

Query :: Would you kindly share the measured RP-LC retention time for "Cc1ccc(CC(=O)N2CCc3nc(-c4ccc(Cl)cc4)ncc3C2)cc1" ?
Result :: 1150

Query :: Moving on to "CC(C)Cc1nc(N2CCNCC2)c(C#N)c2c1COC(C)(C)C2"
Result :: 683

Query :: Moving on to "CCOc1ccc(C(=O)NCc2c(C)noc2C)cc1"
Result :: 733

Query :: Moving on to O=C(NCCc1ccccc1)N1CCC(n2c(-c3ccoc3)nc3cccnc32)C1 (stereo unspecified)
Result :: 725

Query :: Moving on to "CCCn1c(=O)sc2cc(S(=O)(=O)N3CCC(C(=O)NC4CCCCC4)CC3)ccc21"
Result :: 967
